The origin of these recorded values is PubChem BioAssay (NCATS).

- assay-procedure: qHTS assay for environmental chemicals that activate the Aryl hydrocarbon Receptor (AhR) signaling pathway (AID 651777); also: % of control where 0% means no effect; nearly all actives have a fitted effect of over 15% in size
- condition: 1A2-DRE human hepatoma cells, luciferase, 24 h; active compounds read high
Inconclusive results are not listed.
measured-endpoint: activation (%)
Reply numerically in %, unit not repeated.

Nc1nc2ccc([N+](=O)[O-])cc2s1; 8.89
c1cnc2c(c1)ccc1cccnc12; 2.54

Request: GET /values?readout=activation&item= `CC(C)OC(=O)c1cc(C(=O)OC(C)C)cc([N+](=O)[O-])c1`
Result: 4

Request: Record request: activation value, item CN(C)CCC(c1ccc(Cl)cc1)c1ccccn1 (stereo unspecified)
Result: -0.109
